Taken from patent US7335632B2.

Target: Cathepsin D (Homo sapiens, UniProt P07339)
Sequence (P07339 65-412, species assumed): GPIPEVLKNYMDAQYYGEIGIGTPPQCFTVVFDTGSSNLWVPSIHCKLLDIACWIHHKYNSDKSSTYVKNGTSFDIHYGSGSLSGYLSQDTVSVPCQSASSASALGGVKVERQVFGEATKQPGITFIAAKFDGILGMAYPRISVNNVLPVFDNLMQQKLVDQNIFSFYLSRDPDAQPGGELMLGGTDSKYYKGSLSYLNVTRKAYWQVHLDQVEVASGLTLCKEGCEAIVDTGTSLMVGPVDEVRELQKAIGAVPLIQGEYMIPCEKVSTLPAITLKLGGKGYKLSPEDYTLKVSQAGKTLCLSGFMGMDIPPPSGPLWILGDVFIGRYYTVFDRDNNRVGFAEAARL
Assay: Inhibition of cathepsin D activity (substrate peptide […], MALDI-TOF)
Format: biochemical
Conditions: pH 4.1, 37 degrees C., substrate NH3-[…]-CO2, MALDI-TOF; read-out: Cath D Ki
pKi: −log10 of the molar value.
measure-name: pKi

compound	tested-on	pKi
CSC[C@H](NC(=O)OCc1nc(C)cs1)C(=O)N[C@H](CC(C)C)[C@@H](O)C[C@@H](C)C(=O)NCC1CCC(C(=O)OCc2ccccc2)CC1 (some centres unmarked) [Structure 76]	Cathepsin D (Homo sapiens, UniProt P07339)	> 7.00
Cc1noc(COC(=O)N[C@@H](CS(C)(=O)=O)C(=O)N[C@H](CC(C)C)[C@@H](O)C[C@@H](C)C(=O)N[C@@H](C(=O)NCC(C)C)C(C)C)n1 [Structure 69]	Cathepsin D (Homo sapiens, UniProt P07339)	6.00 to 7.00
CSC[C@H](NC(=O)OCc1nc(C)oc1C)C(=O)N[C@H](Cc1ccccc1)[C@@H](O)C[C@@H](C)C(=O)N[C@@H](C(=O)NCC(C)C)C(C)C [Structure 50]	Cathepsin D (Homo sapiens, UniProt P07339)	> 7.00
COCSC[C@H](NC(=O)CCn1nc(C)cc1C)C(=O)N[C@H](CC(C)C)[C@@H](O)C[C@@H](C)C(=O)N[C@@H](C(=O)NCC(C)C)C(C)C [Structure 14]	Cathepsin D (Homo sapiens, UniProt P07339)	> 7.00

Let us examine a further case.
Identify the reported pKi for the following entry. CSC[C@H](NC(=O)OCc1nc(C)oc1C)C(=O)N[C@@H](CC(C)C)[C@@H](O)C[C@@H](C)C(=O)N[C@H](C(=O)Nc1nccs1)C(C)C [Structure 96]
> 7.00

---

Target: Cathepsin D (Homo sapiens, UniProt P07339)
Experiment: Inhibition of cathepsin D activity (substrate peptide […], MALDI-TOF)
Type: biochemical
Settings: pH 4.1, 37 degrees C., substrate NH3-[…]-CO2, MALDI-TOF; read-out: Cath D Ki
Reported values of Ki for individual entries

compound	Ki
CCC(C)S(=O)(=O)C[C@H](NC(=O)OCc1nc(C)cs1)C(=O)N[C@H](CC(C)C)[C@@H](O)C[C@@H](C)C(=O)N[C@@H](C(=O)NCC(C)C)C(C)C (stereo partly drawn) [Structure 67]	100 to 1000 nM
CCS(=O)(=O)C[C@H](NC(=O)OCc1nc(C)c[s+]1[O-])C(=O)N[C@H](CC(C)C)[C@@H](O)C[C@@H](C)C(=O)N[C@@H](C(=O)NCC(C)C)C(C)C (stereo partly drawn) [Structure 24]	< 100 nM

Let us examine a further case.
Identify the reported Ki for the following entry. Cc1csc(COC(=O)N[C@@H](CS(=O)(=O)C(C)C)C(=O)N[C@H](CC(C)C)[C@@H](O)C[C@@H](C)C(=O)N[C@@H](C(=O)NCC(C)C)C(C)C)n1 [Structure 31]
100 to 1000 nM

---

Target: Cathepsin D (Homo sapiens, UniProt P07339)
Assay: Inhibition of cathepsin D activity (substrate peptide […], MALDI-TOF)
Type: biochemical
Conditions: pH 4.1, 37 degrees C., substrate NH3-[…]-CO2, MALDI-TOF; read-out: Cath D Ki
pKi: −log10 of the molar value.
Reported values of pKi for individual entries

molecule	pKi
CSC[C@H](NC(=O)OCc1coc(C)n1)C(=O)N[C@H](CC(C)C)[C@@H](O)C[C@@H](C)C(=O)N[C@@H](C(=O)NCC(C)C)C(C)C	> 7.00
COC(=O)[C@H](NC(=O)[C@H](C)C[C@H](O)[C@@H](CC(C)C)NC(=O)[C@H](CSC)NC(=O)OCc1nc(C)cs1)C(C)C	6.00 to 7.00

Let us examine a further case.
Identify the reported pKi for the following entry. Cc1csc(COC(=O)N[C@@H](CS(C)(=O)=O)C(=O)N[C@H](CC(C)C)[C@@H](O)C[C@@H](C)C(=O)NCC2CCC(C(=O)OCc3ccccc3)CC2)n1 (stereo partly drawn)
> 7.00
